Catalogue of melting point values

Please review the following examples before continuing.
* Cn1c(C(F)(F)F)cc(=O)n(-c2cc(OS(=O)(=O)c3ccc(Cl)cc3)c(Cl)cc2F)c1=O | 152 to 154 °C
* CCCCOC(=O)n1c2ccccc2c2nc3ccccc3cc21 | 168 °C

Lookup result for O=C(O)Cc1nn(-c2nc3c(Cc4ccc5scnc5c4)cccc3s2)c(=O)c2ccccc12 ; measured melting point: 203 to 204 °C

melting point measured on O=C(O)c1ccc(-c2nc3ccccc3s2)cc1 = 294 to 296 °C

The compound NC(=S)Nc1ccc(F)cc1-c1ccccc1 showed melting point equal to 188 to 190 °C

melting point reading for Fc1ccc2c(c1)CC(n1cc[nH]c1=S)CC2 (stereo unspecified) : 215 to 217 °C

====

Documented melting point across a set of compounds

Examples from the recorded data:
* O=C(O)Cn1c(=O)c(=O)[nH]c2cc([N+](=O)[O-])ccc21 | > 320 °C
* COc1ccc(-c2c(-c3cc(OC)c(OC)c(OC)c3)ncn2-c2ccccc2)cc1O | 176 to 177 °C

Looking up OCCOc1cccc2ocnc12 , I found its melting point recorded as 47 to 49 °C

Quick note, melting point for CC(=O)C(C)n1nc(C(=O)NC2CN(C)CCN(Cc3ccccc3)C2)c2ccccc21 (stereo not given) landed at 97 to 100 °C

Measured melting point of O=C(O)c1cc(C(=O)O)c(C(O)=NCCO)cc1C(O)=NCCO : 280 to 281 °C

// melting point value for CCC(=O)Oc1ccc(NC(=O)OC(C)(C)C)cc1C(=O)O : 137 to 142 °C

Looking up O=C(O)CCCCC=Cc1cn(-c2cccnc2)c2ccccc12 , I see its melting point listed as 124 to 125 °C

CCCn1c(=O)oc2cc(F)c([N+](=O)[O-])cc21 yielded melting point of 148 to 152 °C

Lab note: measured melting point of CCOC(=O)C1=C(C)NC(C)=C(C(=O)OCCN2CCN(C(c3ccccc3)c3ccccc3)CC2)C1c1ccc(Cl)cc1 (stereo not given) was 75 to 79 °C

In plain terms, COc1cc(NC(=O)c2c(Cl)cccc2Cl)c2ncccc2c1 has a documented melting point of 180 to 182 °C

====

Recorded melting point by entry

Examples from the recorded data:
• O=C(Nc1cc(C(F)(F)F)cc(C(F)(F)F)c1)[C@H]1CC=CC[C@H]1C(=O)O (relative stereo) = 166 to 167 °C
• Cc1nc2cccc3n(CCCCCCNS(=O)(=O)CC(F)(F)F)c(=O)c1n23 = 141 to 143 °C
• COC(=O)C1=C(C)NC(C)=C(C(=O)OCCc2ccc(OCC(O)CO)cc2)C1c1cccc([N+](=O)[O-])c1 (centres undefined) = 117 to 118 °C
• CCOC(=O)C(=CNC1CC1)C(=O)c1cc(F)c(Cl)cc1Cl = 89 to 90 °C
• NNC1CCC(c2ccccc2F)c2cc(Cl)ccc2N1 (centres undefined) = 213 to 215 °C
• NC(=O)c1ccc(OCCN(Cc2ccccc2)CC(O)c2ccc(OCc3ccccc3)c(OCc3ccccc3)c2)cc1 (centres undefined) = 110 to 111 °C
• CCNC(=O)NS(=O)(=O)c1cc2c(cc1OC)OCCC2CNC(=O)c1cc(Cl)ccc1OC (centres undefined) = 211 to 213 °C
• Nc1ncnc2c1sc(=O)n2C1OC(CO)C(O)C1O (centres undefined) = 248 to 250 °C

// below: melting point requested for another compound
Entry under test: CC(=O)N(C#N)Cc1ccccc1 . Its melting point was 42 °C

====

Below, each of the molecules is paired with its reported melting point value.

Entry CCOc1ccc(C(CC(N)=O)N2C(=O)c3ccccc3C2=O)cc1 (stereo unspecified) ; melting point = 191 °C

====

melting point for assorted compounds

* COC(=O)c1cc(CBr)cc(C2(C#N)CCC2)c1 | 93.9 to 94.6 °C

Consider CS(=O)(=O)c1ccc(-n2nc(C(F)(F)F)cc2-c2ccc(-c3cscn3)c(Cl)c2)cc1 . Its measured melting point is 128 to 130 °C

// field: melting point; key: Cc1cccc(NCCNc2cccc(C)c2C)c1C ; value = 130 to 133 °C

====

Reported values of melting point for individual entries

Answered cases to consult:
- C=CCNC(=O)N1CC(Oc2ccc(Br)cc2)C1: 100 to 101 °C
- Cc1ccccc1S(=O)(=O)NC(N)=O: 179 to 180 °C
- CC[Si](C)(C)NC(=O)c1ccc(N)cc1: 126 to 127 °C
- COc1cc(O)c(C(=O)C=Cc2ccc(C)cc2)c(OC)c1: 130 °C
- Cc1cccn2cc(C(C)C)c(S(=O)(=O)c3ccc(O)cc3)c12: 191 to 193 °C
- Cc1cccc(Br)c1C=O: 48 to 49 °C
- O=C(NCCCCCCOC(=O)N1CCC(O)CC1)Oc1ccc(Oc2ccccc2)cc1: 48 to 55 °C
- O=S(Cc1ccccc1)c1ncc(Cl)cn1 (stereo unspecified): 92 °C

Value of melting point reported for the compound COc1c(OCc2ccccc2)c(OC)c2c(=O)cc(-c3ccc(OCc4ccccc4)c(OCc4ccccc4)c3)oc2c1OC is 155 to 156 °C

Field melting point (entry N#CCCCN1CCOC(c2ccccc2)(c2ccccc2)CC1 ) reads 89 to 90 °C

// melting point value for O=C1CC=C2c3ccc(Cl)cc3CCC2N1 (stereo unspecified) : 241 to 243 °C

====

Measured melting point by item

Known melting point results, listed for orientation:
• O=[N+]([O-])c1cccc2c(Cl)c(Cl)cnc12 = 123 °C
• CCOC(Cc1ccc(OCCn2c(CC)nc(-c3ccccc3)cc2=O)cc1)C(=O)O (stereo unspecified) = 140 to 142 °C
• CCOC(=O)c1cn2c3c(c(-c4ccccc4)c(F)cc3c1=O)OCC2C (stereo unspecified) = 270 to 272 °C

Reported melting point ( CS(=O)c1nc(O)nn1-c1ccccc1 (stereo unspecified) ) = 180 to 182 °C

Reported melting point of COC(=O)c1nc(-c2ccc(Cl)c(OC)c2F)c(F)c(N)c1SC : 113 to 117 °C

The molecule listed as CSc1nc(N)cc(OCCOCP(=O)(O)O)n1 has a reported melting point of 210 to 211 °C

====

In this section, each of the compounds is paired with its reported melting point.

* COC(=O)c1cccc2cc(-c3ccccc3)oc12 | 45 to 47 °C
* O=c1c2cc(F)ccc2nc(C(S)c2ncnc3[nH]cnc23)n1-c1ccccc1Cl (stereo unspecified) | 233 °C
* O=C(O)C1=CS[C@@H]2/C(=C\c3ccc4nc5sccn5c4c3)C(=O)N12 | > 250 °C
* NC(=O)N1C(=O)C(=C(OC(=O)C=Cc2ccccc2)c2cccs2)c2cc(F)c(Cl)cc21 | 214 to 215 °C
* COc1cc(C)cc(C(=O)O)c1C12OC1C(=O)c1c(O)cccc1C2=O (stereo unspecified) | 267 to 268 °C

Entry under test: COc1ccc2cc([C@H](C)C(=O)OC[C@@]3(C)COC(C)(C)O3)ccc2c1 . Its melting point was 65 to 66 °C

The value of melting point measured for the compound CN(C)C(=O)c1ccc(S(=O)(=O)c2ccc(NC(=O)[C@@](C)(O)C(F)(F)F)c(Cl)c2)cc1 turned out to be 120 °C

get_value(item= COc1ccc(NCc2c(F)c(F)c(C(F)(F)F)c(F)c2F)cc1C(=O)O , readout=melting point) returns 94 °C

Form field melting point, entry C[C@@H](O[C@H]1CCCN(Cc2n[nH]c(=O)[nH]2)[C@H]1c1ccccc1)c1cccc(Cl)c1 : 164 to 165 °C

Measured melting point, Cc1ccc(S(=O)(=O)Nc2cc(C(C)(C)C)c(O)c(C(C)(C)C)c2)cc1 : 160 to 180 °C

The value of melting point measured for the compound Nc1ccc(Oc2cc(C34CCCCC3C(=O)NC4=O)c(F)cc2Cl)cc1 (stereo unspecified) turned out to be 213 to 215 °C

Entry O=[N+]([O-])c1cc(-c2nnc(Nc3ccc(Cl)c(Cl)c3)s2)cc([N+](=O)[O-])c1 — recorded melting point = 305 to 306 °C

Data point: COc1ccccc1-c1cccc([N+](=O)[O-])c1 ; melting point = 68 to 69 °C

====

Observation Type: melting point

• CC(C)(C)C1=CC(=O)C2=C(CCCC2)C1=O = 50 to 52 °C

The value of melting point measured for the compound N#Cc1coc2c(Cl)cc(Cl)cc2c1=O turned out to be 150 °C

Entry COc1cc2cn(CC(O)CO)nc2cc1OC (stereo not given) ; melting point = 113 to 115 °C

Query CCC(C)(C)C1=C(OC(C)=O)C(=O)c2ccccc2C1=O yields melting point of 53 °C

Record COc1c(Cl)ccc(-c2cc(N)c(Cl)c(CNCC(=O)O)n2)c1F . Reported melting point: 189 to 191 °C

Just so you know, measured melting point for CCOC(=O)c1cnn(-c2cc(C)cc(C)c2)c1S(C)(=O)=O came out at 120 to 122 °C

# compound CC(C)(C)NS(=O)(=O)c1c(C(F)F)nsc1OCC(F)(F)F ; its melting point = 105 to 106 °C
